# shrunken log2 fold change per entry
Test system: Escherichia coli TOP10
Experiment: shrunken log2 fold change of peptide-encoding DNA abundance (4.5 h post-induction vs induction); higher = less antimicrobial activity (less host growth inhibition)
Settings: time post-induction: 4.5 h; library: site-saturation at positions 5, 18, 19, 20
Please respond with just the number, no unit label.

# shrunken log2 fold change lookup, item RRIRQRPPRLPRPRPRPFHEPRP
-0.0703

Can you handle RRIRSRPPRLPRPRPRPALQPRP next?
0.441

Again, but for RRIRIRPPRLPRPRPRPKLWPRP
-0.182

Lookup RRIRMRPPRLPRPRPRPKLTPRP
1.14

Same lookup for RRIRFRPPRLPRPRPRPAGWPRP , please.
0.674

New cases:
Would you kindly share the measured shrunken log2 fold change for RRIRKRPPRLPRPRPRPAYWPRP ?
0.424

###

Catalogue of shrunken log2 fold change readings, one per entry.
System: Escherichia coli TOP10
Experiment: shrunken log2 fold change of peptide-encoding DNA abundance (4.5 h post-induction vs induction); higher = less antimicrobial activity (less host growth inhibition)
Settings: time post-induction: 4.5 h; library: site-saturation at positions 5, 18, 19, 20

// shrunken log2 fold change lookup, key: RRIRGRPPRLPRPRPRPCACPRP
0.225

Also RRIRKRPPRLPRPRPRPWAVPRP , if possible.
0.192

And then RRIRRRPPRLPRPRPRPEHRPRP , what is it?
0.343

Please give the result for RRIRPRPPRLPRPRPRPTASPRP too.
0.259

Also check RRIRQRPPRLPRPRPRPMFRPRP
-0.0146

Next: RRIRHRPPRLPRPRPRPVVGPRP
0.0224

###

System: Escherichia coli TOP10
Assay: shrunken log2 fold change of peptide-encoding DNA abundance (4.5 h post-induction vs induction); higher = less antimicrobial activity (less host growth inhibition)
Conditions: time post-induction: 4.5 h; library: site-saturation at positions 5, 18, 19, 20
Readout: shrunken log2 fold change

Examples with their reported shrunken log2 fold change follow.
Dear colleague, I am looking for the recorded shrunken log2 fold change of the following sequence: RRIRYRPPRLPRPRPRPYWPPRP
-0.0534

Next sequence: RRIRPRPPRLPRPRPRPVCLPRP
0.081

Next up: RRIRWRPPRLPRPRPRPMSAPRP
0.338

More entries:
I have this sequence here, RRIRCRPPRLPRPRPRPDRRPRP , and I need its recorded shrunken log2 fold change.
0.0327

Similarly, RRIRQRPPRLPRPRPRPCHIPRP ?
-0.0316

Same question for RRIRLRPPRLPRPRPRPSERPRP please.
-0.0849

###

Test system: Escherichia coli TOP10
Experiment: shrunken log2 fold change of peptide-encoding DNA abundance (4.5 h post-induction vs induction); higher = less antimicrobial activity (less host growth inhibition)
Conditions: time post-induction: 4.5 h; library: site-saturation at positions 5, 18, 19, 20
Form field: shrunken log2 fold change (one value per entry).
# output: bare number, no unit

# shrunken log2 fold change lookup, item RRIRHRPPRLPRPRPRPYRVPRP
-0.0718

---
# query: shrunken log2 fold change of entry RRIRQRPPRLPRPRPRPDPPPRP
0.316

# repeat for RRIRTRPPRLPRPRPRPIACPRP
-0.0974

Input RRIRYRPPRLPRPRPRPGTDPRP
-0.0254

Cool, now RRIRVRPPRLPRPRPRPIAPPRP
0.328

Likewise for RRIRLRPPRLPRPRPRPVQCPRP ?
0.079

Follow-up item: RRIRVRPPRLPRPRPRPQGEPRP
-0.227

###

System: Escherichia coli TOP10
Test: shrunken log2 fold change of peptide-encoding DNA abundance (4.5 h post-induction vs induction); higher = less antimicrobial activity (less host growth inhibition)
Settings: time post-induction: 4.5 h; library: site-saturation at positions 5, 18, 19, 20
Recorded shrunken log2 fold change determines the label; the label ranges are low (below -0.07), moderate (-0.07 to below 0.3), high (0.3 or more)

Reference set, count: 5
Record RRIRDRPPRLPRPRPRPVYMPRP — which class?
low

Now consider RRIRDRPPRLPRPRPRPSSMPRP and answer again.
low

Now consider RRIRHRPPRLPRPRPRPLYNPRP and answer again.
low

What do you have for RRIRFRPPRLPRPRPRPPPNPRP ?
high

And for RRIRSRPPRLPRPRPRPDHRPRP ?
moderate

More entries:
Looking at RRIRFRPPRLPRPRPRPLMYPRP , which class would you pick?
low

Thanks! And RRIRMRPPRLPRPRPRPKGVPRP ?
high

Do the same for RRIRCRPPRLPRPRPRPIIKPRP please
low

For RRIRKRPPRLPRPRPRPFFWPRP then?
high

Quick one: RRIRQRPPRLPRPRPRPQHHPRP
low

###

System: Escherichia coli TOP10
Assay: shrunken log2 fold change of peptide-encoding DNA abundance (4.5 h post-induction vs induction); higher = less antimicrobial activity (less host growth inhibition)
Settings: time post-induction: 4.5 h; library: site-saturation at positions 5, 18, 19, 20
Classify by measured shrunken log2 fold change: class 1 if it is equal to or exceeds -0.08, class 0 if it is smaller.

Below, 6 sequences whose answers are already recorded.
Decide: is the reported value of shrunken log2 fold change for RRIRERPPRLPRPRPRPRWNPRP equal to or greater than -0.08?
class 0

Try this sequence too: RRIRPRPPRLPRPRPRPYSIPRP
class 1

Same for RRIRERPPRLPRPRPRPWIPPRP
class 1

Proceed to RRIRYRPPRLPRPRPRPHYWPRP
class 0

Ok, now RRIRCRPPRLPRPRPRPGIFPRP
class 1

Item: RRIRLRPPRLPRPRPRPSHYPRP
class 0

Continuing:
Quick check: does RRIRKRPPRLPRPRPRPIFRPRP have shrunken log2 fold change greater than or equal to -0.08?
class 1

Please give the result for RRIRDRPPRLPRPRPRPPFYPRP too.
class 0

What would you report for RRIRKRPPRLPRPRPRPFSQPRP ?
class 0

Queued: RRIRKRPPRLPRPRPRPGMQPRP
class 1

Field entry: RRIRPRPPRLPRPRPRPKIGPRP
class 1

Moving on to RRIRDRPPRLPRPRPRPCTRPRP
class 1

Moving on to RRIRQRPPRLPRPRPRPIYTPRP
class 1

###

In this section, each of the sequences is paired with its reported shrunken log2 fold change.
Test system: Escherichia coli TOP10
Assay: shrunken log2 fold change of peptide-encoding DNA abundance (4.5 h post-induction vs induction); higher = less antimicrobial activity (less host growth inhibition)
Conditions: time post-induction: 4.5 h; library: site-saturation at positions 5, 18, 19, 20
Please give only the number in your answer, with no unit.

Worked set:
# query: shrunken log2 fold change | item RRIRNRPPRLPRPRPRPAAGPRP | system: Escherichia coli TOP10
0.698

Input RRIRCRPPRLPRPRPRPSNIPRP
-0.319

Next:
What reported shrunken log2 fold change corresponds to RRIRMRPPRLPRPRPRPLWHPRP on Escherichia coli TOP10?
0.336

###

System: Escherichia coli TOP10
Test: shrunken log2 fold change of peptide-encoding DNA abundance (4.5 h post-induction vs induction); higher = less antimicrobial activity (less host growth inhibition)
Settings: time post-induction: 4.5 h; library: site-saturation at positions 5, 18, 19, 20
Measured shrunken log2 fold change accompanies every entry in the list below.
Lab note: jot the number down without any unit.

The following sequences have reported results that may help.
Name the recorded shrunken log2 fold change for RRIRHRPPRLPRPRPRPVLSPRP .
-0.386

Then RRIRERPPRLPRPRPRPYALPRP ?
-0.000856

Moving on to RRIRPRPPRLPRPRPRPVVIPRP
-0.191

Next:
Look up shrunken log2 fold change for this sequence: RRIRTRPPRLPRPRPRPDAPPRP
0.215

Please answer likewise for RRIRTRPPRLPRPRPRPVWGPRP
0.368

For RRIRIRPPRLPRPRPRPNGMPRP then?
-0.0985

RRIRTRPPRLPRPRPRPSWLPRP ?
0.11

And RRIRDRPPRLPRPRPRPMQMPRP ?
0.467

Now consider RRIRMRPPRLPRPRPRPACHPRP .
0.151

What about this sequence? RRIRFRPPRLPRPRPRPHITPRP
-0.734

###

System: Escherichia coli TOP10;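 further: peptides expressed intracellularly from a pBAD plasmid library in pooled LB shake-flask culture, induced with 0.3% L-arabinose, DNA abundance read by NGS, three biological replicates, DESeq2 with apeglm shrinkage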
Assay: shrunken log2 fold change of peptide-encoding DNA abundance (4.5 h post-induction vs induction); higher = less antimicrobial activity (less host growth inhibition)
Details: time post-induction: 4.5 h; library: site-saturation at positions 5, 18, 19, 20
Tick yes if shrunken log2 fold change is 0.06 or greater. Tick no if shrunken log2 fold change is less than 0.06.

I'd appreciate it if you could say whether RRIRQRPPRLPRPRPRPGTHPRP has shrunken log2 fold change at least equal to 0.06.
no

Lookup RRIRKRPPRLPRPRPRPKYRPRP
no

RRIRMRPPRLPRPRPRPIHAPRP , same question.
no

# iterate: RRIRKRPPRLPRPRPRPVESPRP
yes

What about RRIRTRPPRLPRPRPRPSLKPRP ?
no

Same question for RRIRVRPPRLPRPRPRPQKSPRP please.
no

Lab note: next sequence to report on.
Check if shrunken log2 fold change >= 0.06 (inclusive). Item: RRIRKRPPRLPRPRPRPPLVPRP
yes
